Protocol: Plasma pharmacokinetics of milademetan
Format: in vivo, human
Recorded Conditions: human, plasma, oral, Median Tmax, all cohorts
Observed Property: Tmax

Prompt: Suppose we examine the compound CC1(C)CCC2(CC1)N[C@@H](C(=O)N[C@@H]1CC[C@@H](C(N)=O)OC1)[C@H](c1ccnc(Cl)c1F)[C@]21C(=O)Nc2cc(Cl)ccc21 [milademetan, Milademetan] ; what Tmax value has been reported?
Completion: ~3 h

* * *

Protocol: Plasma pharmacokinetics of milademetan
Type: in vivo, human
Recorded Conditions: human, plasma, po, 120 mg/day
Observed Property: AUC(0-t) (ng·h/mL)
Just the number in ng·h/mL, nothing appended.

Prompt: Suppose we examine the compound `CC1(C)CCC2(CC1)N[C@@H](C(=O)N[C@@H]1CC[C@@H](C(N)=O)OC1)[C@H](c1ccnc(Cl)c1F)[C@]21C(=O)Nc2cc(Cl)ccc21` ; what AUC(0-t) value has been reported?
Completion: 25600
